- PROCEDURE_SUMMARY: NCI Yeast Anticancer Drug Screen. Data for the mec2-1 strain (AID 157)
- CONDITION: S. cerevisiae mec2-1 strain, at 1.2 µM, stronger effect = higher value
The panel holds about 79,000 compounds, 15% with a hit somewhere; the sample as a whole holds those more often.
Listed below: growth inhibition values for each entry.
Please reply with the bare figure in % and do not write the unit itself.

O=Cc1ccc(C(F)(F)F)cc1.[C-]#[O+].[C-]#[O+].[C-]#[O+].[Cr]
5
O=S(=O)(O)/C(=C\c1ccccc1)c1ccccc1 (tested in a mixture with another compound)
-3
CC1=C[C@H]2O[C@@H]3C[C@H]4OC(=O)/C=C\C=C\C(C(C)O)OCC(O)C(C)CC(=O)OC[C@@]2(C[C@@H]1O)[C@]4(C)[C@@]31CO1 (some centres undefined)
-60
CC1CN=C(Nc2ccccc2)S1 (centres undefined)
-49

Q) Report growth inhibition for CC1CC(Br)C(=O)O1 (centres undefined) please.
A) -30

Q) And the next one, O=C(O)C1C2CCC(C2)C1c1ccccc1 (centres undefined) ?
A) -1

Q) And the next one, COC(=O)C1c2cc3c(c(O)c2C(O)CC1(C)O)C(=O)c1c(O)cc2c(c1C3=O)OC1OC2(C)C(O)C(N(C)C)C1O (centres undefined) ?
A) -3

Q) And the next one, Cc1c([N+](=O)[O-])oc2ccc3ccccc3c12 ?
A) 6

Q) And the next one, CC1CC(C)CC(C)C(O)/C(C#N)=C/C=C/CC(C2CCCC2C(=O)O)OC(=O)CC(O)C(C)C1 (centres undefined) ?
A) 96
